Target: ZAP-70 (Homo sapiens)
Construct: endogenous in cells
Sequence (P43403 1-619): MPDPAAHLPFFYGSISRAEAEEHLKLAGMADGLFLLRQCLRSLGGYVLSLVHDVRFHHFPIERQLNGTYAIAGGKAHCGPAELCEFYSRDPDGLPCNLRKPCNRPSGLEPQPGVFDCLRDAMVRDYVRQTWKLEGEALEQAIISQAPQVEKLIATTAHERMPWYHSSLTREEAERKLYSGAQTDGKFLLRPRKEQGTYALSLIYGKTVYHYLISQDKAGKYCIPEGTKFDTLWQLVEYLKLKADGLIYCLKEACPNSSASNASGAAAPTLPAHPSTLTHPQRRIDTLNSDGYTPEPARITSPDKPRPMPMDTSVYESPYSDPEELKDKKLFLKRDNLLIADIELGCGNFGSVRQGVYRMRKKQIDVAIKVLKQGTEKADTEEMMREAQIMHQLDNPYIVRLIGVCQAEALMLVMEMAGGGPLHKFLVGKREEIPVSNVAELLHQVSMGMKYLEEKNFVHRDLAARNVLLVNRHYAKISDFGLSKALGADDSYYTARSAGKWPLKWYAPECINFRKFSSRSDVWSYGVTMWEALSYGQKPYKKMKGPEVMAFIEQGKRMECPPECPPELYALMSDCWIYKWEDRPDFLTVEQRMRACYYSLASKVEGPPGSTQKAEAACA
Assay: ZAP-70 kinobeads assay
Settings: cell lysate, dot blot with ZAP-70 antibody
Description: The compounds of the present invention as described in the previous examples were tested in the ZAP-70 kinobeads assay as described (EP-A 1862802 and WO-A 2007/137867). […] Bound proteins are then eluted and the presence ZAP-70 is detected and quantified using a specific antibody in a dot blot procedure and the Odyssey infrared detection system.
pIC50: −log10 of the molar value.
# pIC50 per entry

MOLECULE: COc1ccc(Nc2nc(Nc3ccn(C)n3)ncc2Cl)c(NS(C)(=O)=O)c1
pIC50: 6.00 to 7.00

Given item Cn1ccc(Nc2ncc(Cl)c(Nc3ccccc3NS(C)(=O)=O)n2)n1 , the value recorded as its pIC50 is 6.00 to 7.00

Given item Cc1cc(Nc2ncc(Cl)c(Nc3ccccc3NS(C)(=O)=O)n2)nn1C , the value recorded as its pIC50 is 6.00 to 7.00

Given item Cn1ccc(Nc2ncc(Br)c(Nc3ccccc3NS(C)(=O)=O)n2)n1 , the value recorded as its pIC50 is 6.00 to 7.00

Given item COc1ccc(Nc2nc(Nc3ccnn3C)ncc2Cl)c(NS(C)(=O)=O)c1 , the value recorded as its pIC50 is ≥ 7.00

Given item CCn1ccc(Nc2ncc(Cl)c(Nc3ccccc3NS(C)(=O)=O)n2)n1 , the value recorded as its pIC50 is 6.00 to 7.00

Given item COc1ccc(Nc2nc(Nc3c(C)nn(C)c3C)ncc2Cl)c(NS(C)(=O)=O)c1 , the value recorded as its pIC50 is 6.00 to 7.00

Given item COc1ccc(Nc2nc(Nc3cc(C)nn3C(C)C3CC3)ncc2Cl)c(NS(C)(=O)=O)c1 (stereo not drawn) , the value recorded as its pIC50 is 5.00 to 6.00

Given item COc1ccc(Nc2nc(Nc3cc(C(C)C)nn3C)ncc2Cl)c(NS(C)(=O)=O)c1 , the value recorded as its pIC50 is 6.00 to 7.00
